target: M2 protein of influenza A/Hong Kong/483/1997 (H5N1), expressed on cells (influenza A virus H5N1 A/Hong Kong/483/97)
# key: entry, value: MFI
Respond numerically; units are MFI and should not be typed.

A selection of reference data follows.
{"columns": ["Binder", "Readout units", "MFI"],
 "data": [
  ["3260_D19 (antibody, V domains shown) VH: DMQLVESGGGLVPPGGSLRLSCAASGFSVSDNYINWVRQAPGKGLDWVSVFYSADRTSYADSVKGRFTVSSHDSKNTVYLQMNSLRAEDTAVYYCARVQKSYYGMDVWGQGTTVTVSS VL: GIQMTQSPSSLSASVGDRVTITCRASQSISRYLNWYLQKPGKAPKLLISGASSLQSGVPSRFSGTGSGTEFTLTISSLQPEDFATYYCQQTFSIPLFGQGTKVEIK", "MFI", 846],
  ["3243_J07 (antibody, V domains shown) VH: QVQLQESGPGLLKPSDTLALTCTVSGGSITSDYWSWIRQPPGRGLDWIGFFYNGGSTKYNPSLKSRVTISADTSKNQLSLKLTSVTAADTGVYYCARHDVKFSGSYYVASWGQGTRVTVSS VL: DIQMTQSPSSLSASVGDRVTISCRASQSISTYLNWYQQQPGKAPKVLISGATNLQSGVPSRFSGSGSGTDFTLTISSLQPEDFATYYCQQSYNTPLIFGQGTKLEIK", "MFI", 131]
]}

Now take the following binder into account.
Give the measured MFI of 3255_J06 (antibody, V domains shown) VH: QVQLQESGPGLVKPSETLSLTCTVSGASISSDYWSWIRLPPGKGLEWIGYIYNRGSTKYTPSLKSRVTISLDTAENQFSLRLRSVTAADTAVYYCARHVGGHTYGIDYWGQGTLVTVSS VL: DIQMTQSPSSLSASVGDRVTITCRASQSISNYLNWYQHKPGEAPKLLNYAASSLQSGVPSRFSASGSGTDFTLSISGLQPEDFATYYCQQSYNTPITFGPGTRLEIK .
442

Data origin: patent US20140363441A1
